- Test system: biotinyl-Val-oxazolone
- EXPERIMENT: self-aminoacylation, catalytic enhancement (BVO) (fold over background); higher = more active; k-Seq, kA / k0A0; sequences stand for … in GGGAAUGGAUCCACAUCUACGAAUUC…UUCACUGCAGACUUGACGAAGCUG
Variants at the floor of the assay were thinned out.
Tick 1 if self-aminoacylation is 0.8 or greater. Tick -1 if self-aminoacylation is less than 0.8.

Q: Decide: self-aminoacylation of AUUACCCAGGUCCUCGAGUGA [Fam2.1 aminoacylation ribozyme variant] >= 0.8?
A: 1

Q: Decide: self-aminoacylation of CUACUGCAAACAAUGGGUCUG [Fam1A.1 aminoacylation ribozyme variant] >= 0.8?
A: 1

Q: Decide: self-aminoacylation of AUUACCCUGGUCAUAUAGUGA [Fam2.1 aminoacylation ribozyme variant] >= 0.8?
A: 1

Q: Decide: self-aminoacylation of CUACUUCAAACAAUGUGUCUG [Fam1A.1 aminoacylation ribozyme variant] >= 0.8?
A: 1

Q: Decide: self-aminoacylation of AAGUGUGCUAAUAGUCUCAAG [Fam3.1 aminoacylation ribozyme variant] >= 0.8?
A: 1

Q: Decide: self-aminoacylation of CCACACUUAAUGCAAUCGGUC [Fam1B.1 aminoacylation ribozyme variant] >= 0.8?
A: -1

Q: Decide: self-aminoacylation of AUUACUAUGGUCAUCGAGUGA [Fam2.1 aminoacylation ribozyme variant] >= 0.8?
A: 1

Q: Decide: self-aminoacylation of CGACACUUCAAGCAAACGGUC [Fam1B.1 aminoacylation ribozyme variant] >= 0.8?
A: -1
